target: hERG (Homo sapiens)
Sequence (Q12809 whole entry): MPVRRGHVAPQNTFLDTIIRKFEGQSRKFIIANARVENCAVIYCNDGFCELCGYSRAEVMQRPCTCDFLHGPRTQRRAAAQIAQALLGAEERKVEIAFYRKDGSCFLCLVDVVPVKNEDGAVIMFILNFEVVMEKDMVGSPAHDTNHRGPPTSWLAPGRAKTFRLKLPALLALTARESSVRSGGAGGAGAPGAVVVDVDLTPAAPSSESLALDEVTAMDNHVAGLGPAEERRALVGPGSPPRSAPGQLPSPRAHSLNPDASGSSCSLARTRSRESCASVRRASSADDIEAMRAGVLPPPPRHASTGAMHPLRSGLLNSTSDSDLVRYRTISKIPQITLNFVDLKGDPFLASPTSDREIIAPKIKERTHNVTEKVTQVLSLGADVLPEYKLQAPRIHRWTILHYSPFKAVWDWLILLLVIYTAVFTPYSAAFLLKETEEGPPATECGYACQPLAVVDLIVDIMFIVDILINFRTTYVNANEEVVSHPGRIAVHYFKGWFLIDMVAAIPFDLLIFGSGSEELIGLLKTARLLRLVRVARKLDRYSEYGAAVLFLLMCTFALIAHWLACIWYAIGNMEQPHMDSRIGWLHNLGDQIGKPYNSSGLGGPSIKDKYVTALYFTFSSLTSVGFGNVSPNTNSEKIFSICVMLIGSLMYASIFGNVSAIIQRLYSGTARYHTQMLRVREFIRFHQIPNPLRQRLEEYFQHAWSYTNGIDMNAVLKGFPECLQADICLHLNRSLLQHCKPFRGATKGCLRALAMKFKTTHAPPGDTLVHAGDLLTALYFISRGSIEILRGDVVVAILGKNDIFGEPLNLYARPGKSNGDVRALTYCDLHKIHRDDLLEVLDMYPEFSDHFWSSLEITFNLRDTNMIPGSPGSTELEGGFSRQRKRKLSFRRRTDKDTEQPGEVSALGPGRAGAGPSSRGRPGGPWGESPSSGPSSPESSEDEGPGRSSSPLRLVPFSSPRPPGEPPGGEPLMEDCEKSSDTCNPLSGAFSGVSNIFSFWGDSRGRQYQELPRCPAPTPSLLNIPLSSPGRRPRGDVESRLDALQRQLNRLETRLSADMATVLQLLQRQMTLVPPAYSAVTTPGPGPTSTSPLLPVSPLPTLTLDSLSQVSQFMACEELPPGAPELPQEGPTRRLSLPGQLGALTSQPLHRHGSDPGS
pIC50: −log10 of the molar value.
measurement_type: pIC50

Ask: I'd like to know its pIC50. The compound in question is CC(C)OC(=O)C1=CN(C(=O)c2ccc(F)c(F)c2)CC(C)(C)c2c1[nH]c1ccccc21 [Reference Compound 2]
Reply: < 5.00

---

Target: Gal4/hFXR fusion protein (Homo sapiens)
Sequence (Q96RI1 262-486 limits assumed): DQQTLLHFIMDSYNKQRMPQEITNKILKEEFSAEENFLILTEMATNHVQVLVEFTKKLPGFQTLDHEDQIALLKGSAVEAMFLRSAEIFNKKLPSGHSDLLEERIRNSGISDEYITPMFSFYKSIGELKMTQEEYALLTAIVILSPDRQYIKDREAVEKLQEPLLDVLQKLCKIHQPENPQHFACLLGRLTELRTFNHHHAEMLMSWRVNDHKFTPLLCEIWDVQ
Experiment: Gal4/hFXR fusion protein agonist activity in human 293 cells (luciferase)
Conditions: Gal4/FXR agonist potency in 293 cells; table does not say whether hFXR or mFXR; read-out: Potency Range
pEC50: −log10 of the molar value. Structures can show the parent of a compound that is named as a salt.
measurement_type: pEC50

compound	pEC50
CC(C)OC(=O)C1=CN(C(=O)c2cccc(CN3CCSCC3)c2)CC(C)(C)c2c1[nH]c1ccccc21	6.30 to 7.00

List the reported pEC50 of each compound below.
1. CC(C)OC(=O)C1=CN(C(=O)c2cccc(CN3CCC(N4CCOCC4)CC3)c2)CC(C)(C)c2c1[nH]c1ccccc21
2. CC(C)OC(=O)C1=CN(C(=O)c2cccc(CN3C[C@H](C)C[C@H](C)C3)c2)CC(C)(C)c2c1[nH]c1ccccc21
3. CC(C)OC(=O)C1=CN(C(=O)c2cccc(CNC3CCNCC3)c2)CC(C)(C)c2c1[nH]c1ccccc21 [Example 22, dihydrochloride]
4. CC(C)OC(=O)C1=CN(C(=O)c2cccc(CN(C)C3CCCCC3)c2)CC(C)(C)c2c1[nH]c1ccccc21
5. CC(C)OC(=O)C1=CN(C(=O)c2cccc(CN3CCS(=O)(=O)CC3)c2)CC(C)(C)c2c1[nH]c1ccccc21
6. CC(C)OC(=O)C1=CN(C(=O)c2cccc(CN3CCSC3)c2)CC(C)(C)c2c1[nH]c1ccccc21

Reply:
["5.00 to 6.00", "5.00 to 6.00", "5.00 to 6.00", "6.00 to 6.30", "6.00 to 6.30", "6.30 to 7.00"]

List the reported pEC50 of each compound below.
1. CC(C)OC(=O)C1=CN(C(=O)c2cccc(CN3CCC(O)CC3)c2)CC(C)(C)c2c1[nH]c1ccccc21
2. CC(C)OC(=O)C1=CN(C(=O)c2cccc(CN3C[C@@H](C)C[C@H](C)C3)c2)CC(C)(C)c2c1[nH]c1ccccc21

Reply:
6.00 to 6.30
6.30 to 7.00

List the reported pEC50 of each compound below.
1. CC(C)OC(=O)C1=CN(C(=O)c2cccc(CN3CCCC(C(N)=O)C3)c2)CC(C)(C)c2c1[nH]c1ccccc21 (stereo not drawn)
2. CC(C)OC(=O)C1=CN(C(=O)c2cccc(CN3[C@@H](C)CC[C@@H]3C)c2)CC(C)(C)c2c1[nH]c1ccccc21
3. CC(C)OC(=O)C1=CN(C(=O)c2cccc(CNC3CCCCC3)c2)CC(C)(C)c2c1[nH]c1ccccc21
4. CC(C)OC(=O)C1=CN(C(=O)c2cccc(CN3C[C@@H](C)O[C@@H](C)C3)c2)CC(C)(C)c2c1[nH]c1ccccc21
5. CC(C)OC(=O)C1=CN(C(=O)c2cccc(CN3CCC(N4CCCC4)CC3)c2)CC(C)(C)c2c1[nH]c1ccccc21
6. CC(C)OC(=O)C1=CN(C(=O)c2cccc(CN3CCC(C(N)=O)CC3)c2)CC(C)(C)c2c1[nH]c1ccccc21

Reply:
["6.00 to 6.30", "5.00 to 6.00", "6.00 to 6.30", "6.00 to 6.30", "5.00 to 6.00", "6.00 to 6.30"]

List the reported pEC50 of each compound below.
1. CC(C)OC(=O)C1=CN(C(=O)c2cccc(CN3C[C@@H](C)N[C@@H](C)C3)c2)CC(C)(C)c2c1[nH]c1ccccc21
2. CC(C)OC(=O)C1=CN(C(=O)c2cccc(CN3C[C@@H](C)O[C@H](C)C3)c2)CC(C)(C)c2c1[nH]c1ccccc21
3. CC(C)OC(=O)C1=CN(C(=O)c2cccc(CN3CCC(N4CCCCC4)CC3)c2)CC(C)(C)c2c1[nH]c1ccccc21

Reply:
1. 6.00 to 6.30
2. 6.30 to 7.00
3. 5.00 to 6.00
